read-out: Interleukin-8 (IL8), CXCL8 (gene 3576); assay: BSK_SAg_IL8: BioMAP Diversity Plus: SAg Assay for Interleukin-8 (IL8) Biomarker Activity (AID 2283094); conditions: primary human HUVEC with PBMC; actives raise or lower the signal
The source made the active and inactive calls. The calls were made as follows: active = hit-call score of the fitted dose curve at least 0.9, where 1 is the maximum; inactive = score below 0.9.
Outcomes: yes = active, no = inactive

[
  {
    "compound": "O=C(F)C1(F)C(F)(F)C(F)(F)C(F)(F)C(F)(F)C1(F)F",
    "class-assignment": "no"
  },
  {
    "compound": "OC(O)C(F)(F)C(F)(F)F",
    "class-assignment": "no"
  },
  {
    "compound": "O=C(O)C(F)(F)C(F)(F)C(F)(F)C(=O)O",
    "class-assignment": "no"
  },
  {
    "compound": "O=C(O)CCC(F)(F)C(F)(F)C(F)(F)C(F)(F)C(F)(F)C(F)(F)C(F)(F)F",
    "class-assignment": "no"
  },
  {
    "compound": "CCOC(C=C(C)CCC=C(C)C)OCC",
    "class-assignment": "no"
  },
  {
    "compound": "OCCCCC(F)(F)C(F)(F)C(F)(F)C(F)(F)F",
    "class-assignment": "no"
  },
  {
    "compound": "NCC(F)(F)C(F)(F)C(F)(F)C(F)(F)C(F)(F)C(F)(F)F",
    "class-assignment": "no"
  },
  {
    "compound": "Nc1cc([N+](=O)[O-])cc(Cl)c1O",
    "class-assignment": "no"
  },
  {
    "compound": "OCC(O)CC(F)(F)C(F)(F)C(F)(F)C(F)(F)F (stereo not given)",
    "class-assignment": "no"
  },
  {
    "compound": "FC(F)(F)C(F)(F)C(F)(F)C(F)(F)C(F)(F)C(F)(F)CC[Si](Cl)(Cl)Cl",
    "class-assignment": "no"
  },
  {
    "compound": "FC(F)(F)C(F)(F)C(F)(F)CC1CO1 (stereo not given)",
    "class-assignment": "no"
  },
  {
    "compound": "CC1=CC2C3C=CC(C3)C2C1C (stereo not given)",
    "class-assignment": "no"
  },
  {
    "compound": "OCC(O)CC(F)(F)C(F)(F)C(F)(F)C(F)(F)C(F)(F)C(F)(F)C(F)(F)C(F)(F)F (stereo not given)",
    "class-assignment": "no"
  },
  {
    "compound": "CC(C)(C)c1cc(CCC(=O)NCCCCCCNC(=O)CCc2cc(C(C)(C)C)c(O)c(C(C)(C)C)c2)cc(C(C)(C)C)c1O",
    "class-assignment": "no"
  },
  {
    "compound": "Cc1ccc(S(=O)(=O)C(I)I)cc1",
    "class-assignment": "yes"
  },
  {
    "compound": "OCC(F)(F)C(F)(F)C(F)(F)CO",
    "class-assignment": "no"
  },
  {
    "compound": "O=C(Cl)C(F)(F)C(F)(F)C(F)(F)C(F)(F)C(F)(F)C(F)(F)C(F)(F)F",
    "class-assignment": "no"
  },
  {
    "compound": "Cc1cc(C)c(O)c(C(C)(C)C)c1",
    "class-assignment": "no"
  },
  {
    "compound": "NCC(F)(F)C(F)(F)C(F)(F)C(F)(F)C(F)(F)C(F)(F)C(F)(F)C(F)(F)F",
    "class-assignment": "no"
  },
  {
    "compound": "CNS(=O)(=O)C(F)(F)C(F)(F)C(F)(F)C(F)(F)C(F)(F)C(F)(F)C(F)(F)C(F)(F)F",
    "class-assignment": "no"
  }
]
